Target: Lethal factor protease (Bacillus anthracis, UniProt P15917)
Sequence (P15917 34-809 limits assumed): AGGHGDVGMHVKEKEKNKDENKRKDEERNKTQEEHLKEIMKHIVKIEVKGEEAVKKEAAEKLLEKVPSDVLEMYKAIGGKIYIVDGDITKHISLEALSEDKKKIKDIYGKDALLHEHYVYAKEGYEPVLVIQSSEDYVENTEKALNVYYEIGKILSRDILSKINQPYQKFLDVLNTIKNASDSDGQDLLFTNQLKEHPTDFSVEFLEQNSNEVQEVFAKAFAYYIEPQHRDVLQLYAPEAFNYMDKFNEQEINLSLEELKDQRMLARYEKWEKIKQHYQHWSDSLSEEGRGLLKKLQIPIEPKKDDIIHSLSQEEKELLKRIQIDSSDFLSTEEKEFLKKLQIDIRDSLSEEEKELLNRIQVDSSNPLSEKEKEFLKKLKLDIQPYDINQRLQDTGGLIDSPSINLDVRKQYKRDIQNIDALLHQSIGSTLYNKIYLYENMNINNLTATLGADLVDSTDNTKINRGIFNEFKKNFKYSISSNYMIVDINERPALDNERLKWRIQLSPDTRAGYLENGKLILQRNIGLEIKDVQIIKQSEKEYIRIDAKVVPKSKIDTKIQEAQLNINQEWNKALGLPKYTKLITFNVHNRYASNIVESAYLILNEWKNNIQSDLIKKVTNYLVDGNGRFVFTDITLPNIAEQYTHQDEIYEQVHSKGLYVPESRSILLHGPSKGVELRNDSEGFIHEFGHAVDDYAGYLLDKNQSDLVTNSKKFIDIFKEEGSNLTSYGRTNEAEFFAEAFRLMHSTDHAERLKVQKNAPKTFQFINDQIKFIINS
endpointLabel: Ki (µM)
One number for each entry, in µM.

Completed entries (count: 5):
CO[C@H](C[C@H](CCN1CCN(CC2CCCCC2)CC1)C(=O)NO)c1ccc(F)cc1 | 1.8
CO[C@H](C[C@H](CCN1CCN(c2ccccc2)CC1)C(=O)NO)c1ccc(F)cc1 | 2.22
CO[C@H](C[C@H](CCN(C)CCN(C)c1ccccc1)C(=O)NO)c1ccc(F)cc1 | 0.78
COC(CCC(=O)NO)c1ccc(F)cc1 (stereo not shown) | 11.7
CO[C@H](C[C@H](CCCCNCc1cc2ccccc2s1)C(=O)NO)c1ccc(F)cc1 | 0.32

For each of the compounds below, state Ki.
1. CCOC(CCC(=O)NO)c1ccc(F)cc1 (racemic)
2. COC(CCC(=O)NO)c1cccc(Cl)c1 (stereo not shown)
3. O=C(CC[C@@H](O)c1ccc(F)cc1)NO
4. CO[C@H](C[C@@H](CCCc1ccccc1)C(=O)NO)c1ccc(F)cc1

Reply text:
1. 171
2. 87.4
3. 66.1
4. 78.6

For each of the compounds below, state Ki.
1. CO[C@H](C[C@H](CCN(Cc1ccccc1)Cc1ccccc1)C(=O)NO)c1ccc(F)cc1
2. CO[C@H](C[C@H](CCN1CCCC(C(=O)O)C1)C(=O)NO)c1ccc(F)cc1 (stereo partly shown)
3. CCCC[C@@H](C[C@H](OC)c1ccc(F)cc1)C(=O)NO
4. CO[C@H](C[C@H](CCN1CCC(c2ccccc2)CC1)C(=O)NO)c1ccc(F)cc1
5. COC(CCC(=O)NO)c1ccc(F)c(C)c1 (stereo not shown)

Reply text:
33.4
9
224
0.76
8.9

For each of the compounds below, state Ki.
1. CO[C@H](C[C@H](CCN(C)Cc1cccc(Br)c1)C(=O)NO)c1ccc(F)cc1
2. C=CC[C@@H](C[C@@H](OC)c1ccc(F)cc1)C(=O)NO
3. CO[C@H](C[C@H](CCN1CCC[C@@H](CO)C1)C(=O)NO)c1ccc(F)cc1

Reply text:
1. 1.2
2. 1.16
3. 0.6

For each of the compounds below, state Ki.
1. CO[C@H](C[C@H](CCCCNCCc1ccc(F)cc1)C(=O)NO)c1ccc(F)cc1
2. CO[C@H](C[C@H](CCN1CCOCC1)C(=O)NO)c1ccc(F)cc1

Reply text:
0.28
5.7

For each of the compounds below, state Ki.
1. CO[C@H](C[C@H](Cc1ccccc1)C(=O)NO)c1ccc(F)cc1
2. CO[C@H](C[C@H](CCCCNCc1cccc(-c2ccc(F)cc2)c1)C(=O)NO)c1ccc(F)cc1
3. CO[C@H](CCC(=O)NO)c1ccc(F)cc1
4. CO[C@H](C[C@H](CCN(C)c1cccc(Br)c1)C(=O)NO)c1ccc(F)cc1
5. CCC[C@@H](C[C@@H](OC)c1ccc(F)c(C)c1)C(=O)NO
6. CO[C@H](C[C@H](CCN(C)CCN(C)CCCc1ccccc1)C(=O)NO)c1ccc(F)cc1

Reply text:
89.5
0.45
7.9
2.8
2.6
0.82

For each of the compounds below, state Ki.
1. O=C(CCC(O)c1ccc(F)cc1)NO (racemic)
2. CO[C@H](C[C@H](CCN1CCC(Cc2ccccc2)CC1)C(=O)NO)c1ccc(F)cc1
3. CCCC[C@@H](C[C@@H](OC)c1ccc(F)cc1)C(=O)NO
4. CO[C@H](C[C@H](CCCCNCc1ccc(F)c(C)c1)C(=O)NO)c1ccc(F)cc1
5. CO[C@H](C[C@H](CCN1CCCCCC1)C(=O)NO)c1ccc(F)cc1
6. COC(CCC(=O)NO)c1ccccc1C (stereo not shown) [Compound 167540, N-hydroxy-4-methoxy-4-o-tolylbutanamide]

Reply text:
138
0.4
1.9
0.19
69.5
152

For each of the compounds below, state Ki.
1. CO[C@H](C[C@H](CCCCNCc1ccc(Oc2ccccc2)cc1)C(=O)NO)c1ccc(F)cc1
2. COC(CCC(=O)NO)c1cccc(F)c1 (stereo not shown)
3. CCC[C@H](C[C@@H](OC)c1ccc(F)c(C)c1)C(=O)NO

Reply text:
1. 0.23
2. 51.6
3. 24
